method_notes: physchem
experimental_parameters: buffer, pH 6.5
Please enter t where solubility is greater than or equal to 10 µM, and f where it is lower.

CC(C)n1cc(C(=O)c2ccnc(NC(=O)Cc3ccc(F)cc3F)c2)c2c(N)ncnc21	t
CC(C)n1cc(C(=O)c2cncc(NC(=O)Cn3ccc(C4CC4)n3)c2)c2cnc(N)nc21	t

Lookup: Item `CC(C)n1cc(C(=O)c2cncc(NC(=O)Cc3ccc(Cl)cc3)c2)c2cncnc21` with solubility of 10 µM or above?
Found: t

Lookup: Decide: is the reported value of solubility for `CC(C)n1cc(C(=O)c2cncc(NC(=O)Cn3ccc(C(F)(F)F)n3)c2)c2cnccc21` equal to or greater than 10 µM?
Found: f

Lookup: Threshold query (solubility >= 10 µM) on `CC(C)(CO)n1cc(C(=O)c2cncc(NC(=O)Cc3ccc(Cl)cc3)c2)c2cnc(N)nc21`
Found: t

Lookup: Does solubility meet or surpass 10 µM for `CC(C)n1cc(C(=O)c2cncc(NC(=O)Cc3ccc(Cl)cc3)c2)c2cnc(N)nc21` ?
Found: t

Lookup: # check: solubility of `CC(C)n1cc(C(=O)c2cncc(NC(=O)Cc3ccc(C#N)cc3)c2)c2c(N)ncnc21` is greater than or equal to 10 µM
Found: f

Hello, the source for this data is ChEMBL document CHEMBL4680090, in case you need it.
